assay: Metabolic stability in human hepatic microsome; assay type: in vitro ADME; conditions: human, microsomes, pH 7.4, CL NADPH(+)
Positions of bridges follow the written chain, without caps; N, C: chain ends. Non-standard residues stand in square brackets, D forms with d. Residues, ends and D or L forms follow the SMILES beside them. ξ: configuration not given here. *: point of attachment. NMeL = CN[C@@H](CC(C)C)C(=O)O; NMeA = CN[C@@H](C)C(=O)O; Piperidide = C1CCN(*)CC1; ξF = NC(Cc1ccccc1)C(=O)O; Sar = CNCC(=O)O; tBu = CC(C)(C)*
measurement-type: microsomal CLint at 1 uM (µL/min/mg)
# output: bare number, implied unit µL/min/mg

Data request: Supply measured microsomal CLint at 1 uM of CC[C@H](C)[C@@H]1NC(=O)[C@@H]2CCCN2C(=O)CNC(=O)[C@H](COC(C)(C)C)NC(=O)[C@H](CC(C)C)N(C)C(=O)C(Cc2ccccc2)NC(=O)CN(C)C(=O)C[C@@H](C(=O)N2CCCCC2)NC(=O)[C@H](CC(C)C)N(C)C(=O)[C@H](Cc2ccccc2)NC(=O)[C@H]([C@@H](C)O)NC(=O)[C@H](C)N(C)C1=O (stereo partly drawn) [DP-517] ([Sar][ξF][NMeL]S(tBu)GPI[NMeA]TF[NMeL]D-Piperidide; lactam N-12) in your reply.
Data returned: 31

Value source: patent US9409952B2
